Provenance of the data: patent US20220363763A1

binders and their reported EC50
target: T1, human PD-L1-Fc protein (human, UniProt Q9NZQ7 19-239); experiment: ELISA on coated human PD-L1-Fc; EC50 table has no unit, x axis Ab(nM)
T1 construct: Coated on ELISA plates; also called huPD-L1; not shown: Fc part
T1 sequence (Q9NZQ7 19-239 limits assumed): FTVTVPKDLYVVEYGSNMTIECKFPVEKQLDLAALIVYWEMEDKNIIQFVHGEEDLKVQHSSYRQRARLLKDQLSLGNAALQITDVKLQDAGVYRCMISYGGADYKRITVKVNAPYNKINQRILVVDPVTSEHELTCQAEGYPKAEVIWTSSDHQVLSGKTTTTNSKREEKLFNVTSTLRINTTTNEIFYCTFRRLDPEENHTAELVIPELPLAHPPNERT
Your answer is read as pM, so omit the unit and give the number.

In: // query EC50 value for entry H1210 chimera (antibody, V domains shown, also called chimeric antibody) VH: EVKLVESGGDLVKPGGSLKLSCAASGFTFSSYDMSWVRQTPEKSLEWVATISDGGGYIYYSDSVKGRFTISRDNAKNNLYLQMSSLRSEDTALYICAREFGKRYALDYWGQGTSVTVSS VL: DIVMTQSHKFMSTSVGDRVSISCKASQDVTPAVAWYQQKPGQSPKLLIYSTSSRYTGVPDRFTGSGSGTDFTFTISSVQAEDLAVYYCQQHYTTPLTFGAGTKLELK
Out: 170

In: One more binder: Hu1210-17 (antibody, V domains shown, Hu1210 VH.4b x Vk.1; human gamma 1 / kappa constant domains) VH: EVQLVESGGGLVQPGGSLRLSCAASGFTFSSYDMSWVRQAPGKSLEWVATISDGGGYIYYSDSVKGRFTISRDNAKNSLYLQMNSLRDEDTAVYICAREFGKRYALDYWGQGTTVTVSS VL: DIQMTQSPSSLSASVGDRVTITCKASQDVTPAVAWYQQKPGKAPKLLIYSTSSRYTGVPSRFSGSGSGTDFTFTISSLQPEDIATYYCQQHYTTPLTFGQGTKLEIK
Out: 208

In: One more binder: Hu1210-20 (antibody, V domains shown, Hu1210 VH.4 x Vk.1a; human gamma 1 / kappa constant domains) VH: EVQLVESGGGLVQPGGSLRLSCAASGFTFSSYDMSWVRQAPGKGLEWVSTISDGGGYIYYSDSVKGRFTISRDNAKNSLYLQMNSLRDEDTAVYYCAREFGKRYALDYWGQGTTVTVSS VL: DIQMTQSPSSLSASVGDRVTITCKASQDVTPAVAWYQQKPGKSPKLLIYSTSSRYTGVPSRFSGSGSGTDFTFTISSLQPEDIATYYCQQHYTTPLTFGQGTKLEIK
Out: 185

In: One more binder: Hu1210-19 (antibody, V domains shown, Hu1210 VH.3a x Vk.1a; human gamma 1 / kappa constant domains) VH: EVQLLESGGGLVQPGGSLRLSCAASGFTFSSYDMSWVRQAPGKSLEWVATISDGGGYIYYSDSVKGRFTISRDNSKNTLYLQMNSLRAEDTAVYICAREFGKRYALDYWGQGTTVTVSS VL: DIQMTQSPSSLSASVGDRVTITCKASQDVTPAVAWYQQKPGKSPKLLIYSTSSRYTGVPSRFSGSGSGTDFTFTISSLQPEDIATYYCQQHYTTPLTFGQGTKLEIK
Out: 137

In: One more binder: Hu1210-21 (antibody, V domains shown, Hu1210 VH.4a x Vk.1a; human gamma 1 / kappa constant domains) VH: EVQLVESGGGLVQPGGSLRLSCAASGFTFSSYDMSWVRQAPGKGLEWVATISDGGGYIYYSDSVKGRFTISRDNAKNSLYLQMNSLRDEDTAVYYCAREFGKRYALDYWGQGTTVTVSS VL: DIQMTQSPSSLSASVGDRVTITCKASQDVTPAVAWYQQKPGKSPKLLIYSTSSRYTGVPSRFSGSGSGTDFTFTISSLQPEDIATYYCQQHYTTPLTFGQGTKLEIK
Out: 192

In: One more binder: Hu1210-18 (antibody, V domains shown, Hu1210 VH.3 x Vk.1a; human gamma 1 / kappa constant domains) VH: EVQLLESGGGLVQPGGSLRLSCAASGFTFSSYDMSWVRQAPGKGLEWVSTISDGGGYIYYSDSVKGRFTISRDNSKNTLYLQMNSLRAEDTAVYYCAREFGKRYALDYWGQGTTVTVSS VL: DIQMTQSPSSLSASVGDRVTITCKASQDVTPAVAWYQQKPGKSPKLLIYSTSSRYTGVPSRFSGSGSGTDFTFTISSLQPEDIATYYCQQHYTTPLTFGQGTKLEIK
Out: 195
